Target: histone deacetylase activity (HeLa nuclear extract)
Construct: Histone deacetylase activity from crude nuclear extract derived from HeLa cells was used for screening
Test: HDAC fluorescent activity assay (Biomol Fluor de Lys), HeLa nuclear extract
Settings: Fluor de Lys substrate, IC50 range
pIC50: −log10 of the molar value.
Reported pIC50 is given for each of the following compounds.
measure: pIC50

>>> assay_value("CSCC[C@H](NCc1ccc(CNCc2ccc3cc(C(=O)NO)sc3c2)cc1)C(=O)OC1CCCC1 [Compound 110]")
"> 7.00"
>>> assay_value("O=C(CCCCCCC(=O)Nc1cccc(CNC(=O)N[C@@H](Cc2ccccc2)C(=O)OC2CCCC2)c1)NO [Compound 81]")
"> 7.00"
>>> assay_value("O=C(CCCCCCC(=O)Nc1ccc(CN[C@H](C(=O)O)c2ccccc2)cc1)NO [Compound 21]")
"6.00 to 7.00"
>>> assay_value("CC(C)C[C@H](NC(=O)c1cccc(NC(=O)CCCCCCC(=O)NO)c1)C(=O)OC1CCCC1 [Compound 62]")
"6.00 to 7.00"

---

Form field: IC50 (one value per entry).
System: U937 cancer cell line
Test: Cell inhibition assay (SRB cell viability), U937
Type: cell-based
Settings: Homo sapiens, U-937, U937 cells, 72 h, IC50 range
Procedure: The corresponding cancer cell lines (Hela, U937 and HUT) growing in log phase were harvested and seeded at 1000 cells/well (200 ul final volume) into 96-well tissue culture plates. […] Data were expressed as a percentage inhibition of the control, measured in the absence of inhibitor, as follows:— % inhibition=100−((S^i/S^o)×100) where S^i is the signal in the presence of inhibitor and S^o is the signal in the presence of DMSO. […]
measure: IC50

>>> assay_value("CC(C)(C)OC[C@H](NCc1ccc(NCc2ccc3cc(C(=O)NO)sc3c2)cc1)C(=O)OC1CCCC1")
"0.33 to 3.3 µM"
>>> assay_value("CC(C)C[C@H](NCC1CCC(CNCc2ccc3cc(C(=O)NO)sc3c2)CC1)C(=O)OC1CCCC1 (some centres unmarked)")
"< 0.33 µM"
>>> assay_value("O=C(CCCCCCC(=O)Nc1cccc(CCN[C@H](C(=O)OC2CCCC2)c2ccccc2)c1)NO")
"< 0.33 µM"
>>> assay_value("O=C(CNCc1ccc(CNCc2ccc3cc(C(=O)NO)sc3c2)cc1)OC1CCCC1")
"< 0.33 µM"
>>> assay_value("O=C(CCCCCCC(=O)N1Cc2ccccc2C[C@H]1C(=O)N[C@H](C(=O)OC1CCCC1)c1ccccc1)NO")
"0.33 to 3.3 µM"
>>> assay_value("O=C(CCCCCCC(=O)Nc1cccc(CN[C@@H](CCc2ccccc2)C(=O)OC2CCCC2)c1)NO")
"< 0.33 µM"
>>> assay_value("CCOC(=O)[C@H](Cc1ccccc1)NC(=O)[C@@H]1Cc2ccccc2CN1C(=O)CCCCCCC(=O)NO")
"0.33 to 3.3 µM"
>>> assay_value("O=C(CCCCCCC(=O)N1CCCC1C(=O)N[C@@H](Cc1ccccc1)C(=O)OC1CCCC1)NO (some centres unmarked)")
"> 3.3 µM"
>>> assay_value("O=C(CCCCCCC(=O)Nc1ccc(CN[C@H](C(=O)O)c2ccccc2)cc1)NO")
"> 3.3 µM"
>>> assay_value("O=C(CCCCCCC(=O)Nc1ccc(C(=O)N[C@H](C(=O)O)c2ccccc2)cc1)NO")
"> 3.3 µM"
>>> assay_value("O=C(CCCCCCC(=O)Nc1cccc(CNC(=O)N[C@H](C(=O)OC2CCCC2)c2ccccc2)c1)NO")
"> 3.3 µM"

---

Biological target: histone deacetylase activity (HeLa nuclear extract)
Construct: Histone deacetylase activity from crude nuclear extract derived from HeLa cells was used for screening
Experiment: HDAC fluorescent activity assay (Biomol Fluor de Lys), HeLa nuclear extract
Conditions: Fluor de Lys substrate, IC50 range
# IC50 listing for each entry below
measure: IC50

>>> assay_value("O=C(CCCCCCC(=O)Nc1cccc(CCN[C@H](C(=O)O)c2ccccc2)c1)NO [Compound 72]")
"< 100 nM"
>>> assay_value("O=C(NO)c1cc2ccc(CNCc3ccc(CN[C@H](C(=O)OC4CCCC4)C4CCCCC4)cc3)cc2s1 [Compound 116]")
"101 to 1000 nM"
>>> assay_value("O=C(CCCCCCC(=O)N1Cc2[nH]c3ccccc3c2C[C@@H]1C(=O)N[C@@H](Cc1ccccc1)C(=O)O)NO [Compound 6]")
"< 100 nM"

---

IC50 overview
Target: histone deacetylase activity (HeLa nuclear extract)
Construct: Histone deacetylase activity from crude nuclear extract derived from HeLa cells was used for screening
Test: HDAC fluorescent activity assay (Biomol Fluor de Lys), HeLa nuclear extract
Details: Fluor de Lys substrate, IC50 range
measure: IC50

>>> assay_value("O=C(NO)c1cc2ccc(CNCc3ccc(CN[C@H](C(=O)O)C4CCCCC4)cc3)cc2s1 [Compound 117]")
"< 100 nM"
>>> assay_value("CCOC(=O)[C@H](Cc1ccccc1)NC(=O)[C@H]1Cc2c([nH]c3ccccc23)CN1C(=O)CCCCCCC(=O)NO [Compound 5]")
"101 to 1000 nM"
>>> assay_value("O=C(CCCCCCC(=O)Nc1cccc(COC(=O)N[C@@H](Cc2ccccc2)C(=O)O)c1)NO [Compound 95]")
"101 to 1000 nM"
>>> assay_value("O=C(CCCCCCC(=O)N1CCc2ccc(C(=O)N[C@H](C(=O)OC3CCCC3)c3ccccc3)cc2C1)NO [Compound 15]")
"> 1000 nM"
>>> assay_value("O=C(CCCCCCC(=O)Nc1ccc(C(=O)N[C@H](C(=O)O)c2ccccc2)cc1)NO [Compound 18]")
"101 to 1000 nM"
>>> assay_value("O=C(CCCCCCC(=O)N1CCc2c([nH]c3ccccc23)C1C(=O)N[C@@H](Cc1ccccc1)C(=O)O)NO (some centres unmarked) [Compound 65]")
"< 100 nM"
>>> assay_value("O=C(CCCCCCC(=O)Nc1cccc(OCCCC(=O)N[C@H](C(=O)OC2CCCC2)c2ccccc2)c1)NO [Compound 92]")
"< 100 nM"
>>> assay_value("CC(C)C[C@H](NCc1cccc(NC(=O)CCCCCCC(=O)NO)c1)C(=O)OC1CCCC1 [Compound 39]")
"101 to 1000 nM"
>>> assay_value("O=C(CCCCCCC(=O)Nc1cccc(CNC(=O)N[C@H](C(=O)O)c2ccccc2)c1)NO [Compound 80]")
"101 to 1000 nM"
>>> assay_value("O=C(CNCc1ccc(CNCc2ccc3cc(C(=O)NO)sc3c2)cc1)OC1CCCC1 [Compound 120]")
"< 100 nM"
>>> assay_value("O=C(CCCCCCC(=O)Nc1ccc(CN[C@@H](C(=O)O)c2ccccc2)cc1)NO [Compound 84]")
"101 to 1000 nM"
>>> assay_value("CC(C)C[C@H](NC(=O)[C@@H]1Cc2ccccc2CN1C(=O)CCCCCCC(=O)NO)C(=O)OC1CCCC1 [Compound 51]")
"101 to 1000 nM"
>>> assay_value("O=C(CCCCCCC(=O)N1CCc2ccc(C(=O)N[C@H](C(=O)O)c3ccccc3)cc2C1)NO [Compound 16]")
"> 1000 nM"
>>> assay_value("O=C(CCCCCCC(=O)Nc1ccc(CN[C@H](C(=O)OC2CCCC2)C2CCCCC2)cc1)NO [Compound 86]")
"101 to 1000 nM"
>>> assay_value("CC(C)C[C@H](NCc1cccc(NCc2ccc3cc(C(=O)NO)sc3c2)c1)C(=O)OC1CCCC1 [Compound 133]")
"101 to 1000 nM"
>>> assay_value("O=C(CCCCCCC(=O)N1CCc2c([nH]c3ccccc23)C1CN[C@H](C(=O)O)c1ccccc1)NO (some centres unmarked) [Compound 43]")
"101 to 1000 nM"
>>> assay_value("CCOC(=O)[C@H](Cc1ccccc1)NCc1cncc(NC(=O)CCCCCCC(=O)NO)c1 [Compound 66]")
"101 to 1000 nM"

---

Listed here: items and their measured IC50.
Target: histone deacetylase activity (HeLa nuclear extract)
Construct: Histone deacetylase activity from crude nuclear extract derived from HeLa cells was used for screening
Experiment: HDAC fluorescent activity assay (Biomol Fluor de Lys), HeLa nuclear extract
Settings: Fluor de Lys substrate, IC50 range
measure: IC50

>>> assay_value("O=C(CCCCCCC(=O)Nc1ccc(CN[C@H](C(=O)OC2CCCC2)c2ccccc2)cc1)NO")
"101 to 1000 nM"
>>> assay_value("CC(C)(C)OC(=O)[C@H](Cc1ccccc1)NCc1cncc(NC(=O)CCCCCCC(=O)NO)c1")
"101 to 1000 nM"
>>> assay_value("O=C(NO)c1cc2ccc(CNCc3ccc(CN[C@@H](Cc4ccccc4)C(=O)O)cc3)cc2s1")
"< 100 nM"
>>> assay_value("O=C(NO)c1cc2ccc(CNc3cccc(CN[C@H](C(=O)OC4CCCC4)C4CCCCC4)c3)cc2s1")
"> 1000 nM"
>>> assay_value("O=C(CCCCCCC(=O)Nc1cccc(CN[C@@H](CCc2ccccc2)C(=O)O)c1)NO")
"101 to 1000 nM"
